- tested-system: Seed linoleate 13S-lipoxygenase-1 (Glycine max, UniProt P08170)
- Sequence (P08170 whole entry): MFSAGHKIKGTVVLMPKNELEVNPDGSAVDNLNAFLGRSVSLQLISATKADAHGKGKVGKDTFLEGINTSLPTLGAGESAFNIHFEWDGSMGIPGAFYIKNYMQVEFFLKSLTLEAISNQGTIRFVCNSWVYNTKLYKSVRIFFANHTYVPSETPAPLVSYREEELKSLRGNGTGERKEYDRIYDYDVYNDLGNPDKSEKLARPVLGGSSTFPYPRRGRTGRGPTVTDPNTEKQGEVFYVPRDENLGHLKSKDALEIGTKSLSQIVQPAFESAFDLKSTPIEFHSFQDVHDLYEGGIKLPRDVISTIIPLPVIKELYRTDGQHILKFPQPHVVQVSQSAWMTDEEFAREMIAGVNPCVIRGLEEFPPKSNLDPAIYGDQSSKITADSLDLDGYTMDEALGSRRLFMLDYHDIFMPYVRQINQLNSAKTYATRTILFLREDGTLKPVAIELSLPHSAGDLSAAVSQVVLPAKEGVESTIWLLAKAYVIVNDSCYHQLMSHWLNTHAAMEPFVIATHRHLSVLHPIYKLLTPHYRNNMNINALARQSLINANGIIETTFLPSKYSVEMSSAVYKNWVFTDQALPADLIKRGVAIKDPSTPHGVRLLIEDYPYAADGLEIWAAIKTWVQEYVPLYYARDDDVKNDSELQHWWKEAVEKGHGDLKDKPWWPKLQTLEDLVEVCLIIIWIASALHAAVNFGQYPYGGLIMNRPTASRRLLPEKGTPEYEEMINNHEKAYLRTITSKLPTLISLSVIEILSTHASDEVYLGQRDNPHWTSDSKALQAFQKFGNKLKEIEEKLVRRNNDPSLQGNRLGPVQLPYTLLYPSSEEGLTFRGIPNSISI
pIC50: −log10 of the molar value.
endpoint-name: pIC50

Worked cases, pIC50 given:
>>> reported_value("C=CCc1cccc(OC)c1OC")
3.89
>>> reported_value("COc1cc(C)cc(OC)c1C/C=C(\\C)CC/C=C(\\C)CCC=C(C)C")
6.28
>>> reported_value("C=CCc1c(OC)cccc1OC [2-Allyl-1,3-dimethoxybenzene (6)]")
4.27
>>> reported_value("C=CCc1ccc(OC)c(OC)c1 [METHYLEUGENOL]")
4.48
>>> reported_value("COc1cc(C)cc(OC)c1CC=C(C)C")
5.12

1 = COc1cc(C)cc(OC)c1C/C=C(\C)CCC=C(C)C
2 = C=CCc1c(OC)cc(OC)cc1OC [2-Allyl-1,3,5-trimethoxybenzene (7)]
3 = C=CCc1cc(OC)cc(OC)c1 [1-Allyl-3,5-dimethoxybenzene (2)]
Output the entries ranked by pIC50 from maximum down to minimum. Would you mind listing the labels in the order asked for?
1, 3, 2
